- measured target: human muscarinic M1 receptor (Homo sapiens, UniProt P11229)
- procedure details: Alphascreen Surefire phospho-ERK1/2 functional assay, M1
- Assay type: cell-based
- condition: CHO, read-out: % Emax cf. ACh, M1
Emax: recorded values
Kindly answer with a numeric value in %, unit omitted.

compound="CCOC(=O)N1CCC2(CC(N3CCC(O)(c4nccn4C)CC3)C2)C1 (single isomer, unassigned) [1-39 Isomer 2]" output_unit=% meas_value=49
compound="CCOC(=O)N1CCC2(CC(N3CCC(OC)(c4ncc[nH]4)CC3)C2)C1 (single isomer, unassigned) [1-38 Isomer 2]" output_unit=% meas_value=31
compound="CCOC(=O)N1CCC2(CC(N3CCC(n4cccn4)CC3)C2)C1 (single isomer, unassigned) [1-33 Isomer 2]" output_unit=% meas_value=11
compound="CCOC(=O)N1CCC2(CC(N3CCC(O)(c4ncc[nH]4)CC3)C2)C1 (single isomer, unassigned) [1-37 Isomer 2]" output_unit=% meas_value=78
compound="CCOC(=O)N1CCC2(CC(N3CCC(C)(c4nc(C)no4)CC3)C2)C1 (single isomer, unassigned) [1-41 Isomer 2]" output_unit=% meas_value=52

Okay, next one:
Prompt: Record CCOC(=O)N1CCC2(CC(N3CCC(OC)(c4nccn4C)CC3)C2)C1 (single isomer, unassigned) [1-40 Isomer 2] : what is its Emax with human muscarinic M1 receptor (Homo sapiens, UniProt P11229)?
Response: 904

* * *

- measured target: human muscarinic M1 receptor (Homo sapiens)
- Sequence (P11229 1-460): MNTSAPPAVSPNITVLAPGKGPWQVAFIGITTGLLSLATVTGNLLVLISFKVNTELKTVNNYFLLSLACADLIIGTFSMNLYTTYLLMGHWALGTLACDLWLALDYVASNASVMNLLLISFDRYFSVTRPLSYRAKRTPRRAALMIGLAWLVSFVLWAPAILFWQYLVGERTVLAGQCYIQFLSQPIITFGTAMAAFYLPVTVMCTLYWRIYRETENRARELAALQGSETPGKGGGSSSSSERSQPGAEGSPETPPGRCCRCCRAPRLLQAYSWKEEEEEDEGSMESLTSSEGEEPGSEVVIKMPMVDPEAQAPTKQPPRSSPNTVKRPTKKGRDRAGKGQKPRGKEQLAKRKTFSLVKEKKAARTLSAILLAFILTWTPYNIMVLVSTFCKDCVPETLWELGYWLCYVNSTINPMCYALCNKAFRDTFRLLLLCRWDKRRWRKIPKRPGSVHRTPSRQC
- procedure details: Alphascreen Surefire phospho-ERK1/2 functional assay, M1
- Format: cell-based
- condition: CHO cells stably expressing human M1; phospho-ERK1/2; * = variable results; read-out: pEC50 M1 (converted)
measurement label: EC50 (nM)
Dear colleague, please return just the value in nM, with no unit written.

Below, 3 compounds whose answers are already recorded.
compound="COC(=O)N1CCC2(CC(N3CCC([C@@H]4CCCN4C(=O)N4CC(F)(F)C4)CC3)C2)C1 (single isomer, unassigned) [2-41 Isomer 2]" measurement_label=EC50 output_unit=nM meas_value=2510
compound="CCOC(=O)N1CCC2(CC(N3CCC([C@@H]4CCCN4C(=O)NC4CC4)CC3)C2)C1 (single isomer, unassigned) [2-29 Isomer 2]" measurement_label=EC50 output_unit=nM meas_value=501
compound="CCOC(=O)N1CCC2(CC(N3CCC([C@@H]4CCCN4C(=O)NC4CCC4)CC3)C2)C1 (single isomer, unassigned) [2-30 Isomer 2]" measurement_label=EC50 output_unit=nM meas_value=501

Prompt: Could you share which EC50 value was measured for COC(=O)N1CCC2(CC(N3CCC(c4nc(C)cn4C)CC3)C2)C1 (single isomer, unassigned) [1-11 Isomer 2] ?
Response: 1580

* * *

# log10(EC50) annotations
- measured target: human muscarinic M1 receptor (Homo sapiens, UniProt P11229)
- procedure details: Alphascreen Surefire phospho-ERK1/2 functional assay, M1
- Format: cell-based
- condition: CHO cells stably expressing human M1; phospho-ERK1/2; * = variable results; read-out: pEC50 M1 (converted)
Please keep in mind that the values are log10 of EC50 expressed in nM.

Use the examples below as a reference point.
molecule="CCOC(=O)N1CCC2(CC(N3CCC(n4cc(C)cn4)CC3)C2)C1 (single isomer, unassigned) [1-34 Isomer 2]" measurement_label=log10(EC50) meas_value=0.90
molecule="CCOC(=O)N1CCC2(CC(N3CCC([C@@H]4CCCN4C(=O)N(C)C)CC3)C2)C1 (single isomer, unassigned) [2-21 Isomer 2]" measurement_label=log10(EC50) meas_value=2.80
molecule="COC(=O)N1CCC2(CC(N3CCC(c4ncc(Cl)n4C)CC3)C2)C1 (single isomer, unassigned) [1-13 Isomer 2]" measurement_label=log10(EC50) meas_value=3.20
molecule="CCOC(=O)N1CCC2(CC(N3CCC([C@@H]4CCCN4C(=O)NCCF)CC3)C2)C1 (single isomer, unassigned) [2-44 Isomer 2]" measurement_label=log10(EC50) meas_value=2.50
molecule="CCOC(=O)N1CCC2(CC(N3CCC([C@@H]4CCCN4c4nccs4)CC3)C2)C1 (single isomer, unassigned) [2-82 Isomer 2]" measurement_label=log10(EC50) meas_value=2.70

Prompt: // map [2H]C([2H])([2H])C([2H])([2H])OC(=O)N1CCC2(CC(N3CCC(n4cccn4)CC3)C2)C1 (single isomer, unassigned) [1-70 Isomer 2] to recorded log10(EC50) (system: human muscarinic M1 receptor (Homo sapiens, UniProt P11229))
Response: 1.90

* * *

- measured target: human muscarinic M1 receptor (Homo sapiens, UniProt P11229)
- procedure details: Alphascreen Surefire phospho-ERK1/2 functional assay, M1
- Assay type: cell-based
- condition: CHO, read-out: % Emax cf. ACh, M1, CHO cells stably expressing human M1; relative to ACh
Labelling field: enter label 1 if recorded Emax is less than 60%. Enter label 0 if it equals or exceeds that cut-off.

Past entries and their recorded results:
compound="CCOC(=O)N1CCC2(CC(N3CCC(C4CCCN(CC)C4=O)CC3)C2)C1 (single isomer, unassigned) [4-5 Isomer 2]" label_class="label 1"
compound="CCOC(=O)N1CCC2(CC(N3CCC([C@@H]4CCCN4C(=O)N4CCC(F)(F)C4)CC3)C2)C1 (single isomer, unassigned) [2-37 Isomer 2]" label_class="label 0"
compound="CCOC(=O)N1CCC2(CC(N3CCC([C@@H]4CCCN4C(=O)N4CCC4)CC3)C2)C1 (single isomer, unassigned) [2-27 Isomer 2]" label_class="label 1"

Prompt: Hello, I'm reviewing records and need to know if Emax of CCOC(=O)N1CCC2(CC(N3CCC(c4nccn4CCOC)CC3)C2)C1 (single isomer, unassigned) [1-51 Isomer 2] is below 60%. Could you check?
Response: label 0

Prompt: Given the entry CCOC(=O)N1CCC2(CC(N3CCC([C@@H]4CCCN4C(=O)OCCF)CC3)C2)C1 (single isomer, unassigned) [2-47 Isomer 2] , would its reported Emax be below 60%?
Response: label 1

Prompt: Would you kindly verify if Emax of CCOC(=O)N1CCC2(CC(N3CCC(C4c5ccccc5CN4C(=O)NC)CC3)C2)C1 (single isomer, unassigned) [2-76 Isomer 1] is strictly less than 60%?
Response: label 0

* * *

- measured target: UniProtKB P08172
- Sequence (P08172 whole entry): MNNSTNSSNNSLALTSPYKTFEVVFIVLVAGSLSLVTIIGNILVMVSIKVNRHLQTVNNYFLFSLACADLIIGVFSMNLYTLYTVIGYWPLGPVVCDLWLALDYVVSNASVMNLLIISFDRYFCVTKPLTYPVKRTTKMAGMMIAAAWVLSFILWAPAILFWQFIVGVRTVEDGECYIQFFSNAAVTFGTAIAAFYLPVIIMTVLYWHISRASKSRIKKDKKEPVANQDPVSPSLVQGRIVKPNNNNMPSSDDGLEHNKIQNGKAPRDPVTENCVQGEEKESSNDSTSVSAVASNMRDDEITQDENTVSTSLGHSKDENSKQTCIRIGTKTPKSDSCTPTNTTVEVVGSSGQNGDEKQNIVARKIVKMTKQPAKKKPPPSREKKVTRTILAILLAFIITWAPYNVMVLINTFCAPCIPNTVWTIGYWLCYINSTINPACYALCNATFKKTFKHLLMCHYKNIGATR
- procedure details: Alphascreen Surefire phospho-ERK1/2 functional assay, M2
- condition: CHO, read-out: % Emax cf. ACh, M2, CHO cells stably expressing human M2; relative to ACh
measurement label: Emax (%)
The answer is to be given in %; state only the numeric part.

These solved cases illustrate the format of a correct answer.
compound="CCOC(=O)N1CCC2(CC(N3CCC(c4c(C)cnn4C)CC3)C2)C1 (single isomer, unassigned) [1-58 Isomer 2]" measurement_label=Emax meas_value=13
compound="CCOC(=O)N1CCC2(CC(N3CCC(c4nccn4C(=O)OCC)CC3)C2)C1 (single isomer, unassigned) [1-8 Isomer 2]" measurement_label=Emax meas_value=34
compound="CCOC(=O)N1CCC2(CC(N3CCC([C@@H]4CCCN4c4ccncc4)CC3)C2)C1 (single isomer, unassigned) [2-80 Isomer 2]" measurement_label=Emax meas_value=16
compound="CCOC(=O)N1CCC2(CC(N3CCC(N4CCC[C@@H]4CF)CC3)C2)C1 (single isomer, unassigned) [2-102 Isomer 2]" measurement_label=Emax meas_value=1
compound="CCOC(=O)N1CCC2(CC(N3CCC(N4CCCC45CCOC5=O)CC3)C2)C1 (single isomer, unassigned) [2-96 Isomer 2]" measurement_label=Emax meas_value=1

Proceeding to the next compound to report its Emax.
Prompt: // returns reported Emax for input CCOC(=O)N1CCC2(CC(N3CCC([C@@H]4CCCN4C(=O)CO)CC3)C2)C1 (single isomer, unassigned) [2-52 Isomer 2]
Response: 4

* * *

- measured target: human muscarinic M1 receptor (Homo sapiens, UniProt P11229)
- procedure details: Alphascreen Surefire phospho-ERK1/2 functional assay, M1
- Format: cell-based
- condition: CHO, read-out: % Emax cf. ACh, M1, CHO cells stably expressing human M1; relative to ACh
measurement label: Emax (%)
// note: answer is a bare numeric in %

Prompt: Could you tell me which Emax is on file for CCOC(=O)N1CCC2(CC(N3CCC([C@@H]4CCCN4C(=O)OCCNC)CC3)C2)C1 (single isomer, unassigned) [2-67 Isomer 2] ?
Response: 19

Prompt: Query: Emax; subject: CCOC(=O)N1CCC2(CC(N3CCC([C@@H]4CCCN4CC)CC3)C2)C1 (single isomer, unassigned) [2-61 Isomer 2]
Response: 10

Prompt: Report Emax for CCOC(=O)N1CCC2(CC(N3CCC(N4C(=O)OC[C@@H]4C)CC3)C2)C1 (single isomer, unassigned) [2-121 Isomer 2] please.
Response: 31

Prompt: // query Emax value for entry CCOC(=O)N1CCC2(CC(N3CCC(c4ccon4)CC3)C2)C1 (single isomer, unassigned) [1-43 Isomer 2]
Response: 32

Prompt: Need Emax, item CCOC(=O)N1CCC2(CC(N3CCC(N4CCCC[C@@H]4C(=O)N(C)C)CC3)C2)C1 (single isomer, unassigned) [4-17 Isomer 2]
Response: 27

Prompt: I have this molecule here, CCOC(=O)N1CCC2(CC(N3CCC([C@@H]4CCCN4c4nccs4)CC3)C2)C1 (single isomer, unassigned) [2-82 Isomer 2] , and I need its recorded Emax.
Response: 52
